Sequence of the target: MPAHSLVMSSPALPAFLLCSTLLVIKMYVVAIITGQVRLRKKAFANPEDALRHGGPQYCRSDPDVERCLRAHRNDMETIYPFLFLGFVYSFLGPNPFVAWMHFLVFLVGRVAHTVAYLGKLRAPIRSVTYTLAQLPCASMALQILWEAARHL
Consider the following compounds; for each one, report its IC50.
Numbers only, in nM.

Check out these entries, answers already filled in.
Input: Please look up its IC50: NS(=O)(=O)c1ccccc1S(=O)(=O)NC(=O)c1ccc(C#CC2CCCC2)c(F)c1
Output: 15

Input: Please look up its IC50: NS(=O)(=O)c1ccccc1S(=O)(=O)NC(=O)c1ccc(C#CC2(O)CCCC2)cc1
Output: 1900

Please give IC50 for each item listed below.
1. C=C(C)C#Cc1ccc(C(=O)NS(=O)(=O)c2ccccc2S(N)(=O)=O)cc1
2. COCCOCCOc1cc(C(=O)NS(=O)(=O)c2ccccc2S(N)(=O)=O)ccc1-c1cc2ccccc2o1
3. NS(=O)(=O)c1ccccc1S(=O)(=O)NC(=O)c1ccc2[nH]c(Cc3ccccc3)cc2c1
4. COc1ccc(-c2cc3cc(C(=O)NS(=O)(=O)c4ccccc4S(N)(=O)=O)ccc3o2)cc1
5. Cc1nc(-c2ccc(Cl)cc2)sc1C(=O)NS(=O)(=O)c1ccccc1S(N)(=O)=O
6. NS(=O)(=O)c1ccccc1S(=O)(=O)NC(=O)c1ccc(-c2cc3ccccc3s2)cc1

Output:
62
17
580
29
44
40

Please give IC50 for each item listed below.
1. CC(C)Oc1cc(C(=O)NS(=O)(=O)c2ccccc2S(N)(=O)=O)ccc1C#CC1(O)CCCCCC1
2. NS(=O)(=O)c1ccccc1S(=O)(=O)NC(=O)c1ccc(-c2cc3ccccc3o2)cn1
3. NS(=O)(=O)c1ccccc1S(=O)(=O)NC(=O)c1ccc2cc(-c3ccccc3)oc2c1
4. NS(=O)(=O)c1ccccc1S(=O)(=O)NC(=O)c1ccc(C#Cc2cccnc2)cc1

Output:
[560, 240, 78, 320]

Please give IC50 for each item listed below.
1. NS(=O)(=O)c1ccccc1S(=O)(=O)NC(=O)c1ccc(Cl)cc1Cc1ccccc1
2. NS(=O)(=O)c1ccccc1S(=O)(=O)NC(=O)c1ccc(C#Cc2ccccn2)cc1
3. NS(=O)(=O)c1ccccc1S(=O)(=O)NC(=O)c1ccc(-c2cc3ccccc3o2)cc1
4. Cc1cc(Br)ccc1C(=O)NS(=O)(=O)c1ccccc1S(N)(=O)=O

Output:
1: 5400; 2: 1000; 3: 5.8; 4: 2000

Please give IC50 for each item listed below.
1. NS(=O)(=O)c1ccccc1S(=O)(=O)NC(=O)c1ccc(Br)cc1O [Example 49a]
2. COC(C)(C)C#Cc1ccc(C(=O)NS(=O)(=O)c2ccccc2S(N)(=O)=O)cc1O
3. NS(=O)(=O)c1ccccc1S(=O)(=O)NC(=O)c1ccc(-c2cc3ccccc3o2)cc1C(F)(F)F

Output:
540
4300
360
